- Test system: soybean plantlets
- Test Protocol: High-throughput soybean screening for herbicide tolerance (plantlets)
- Type: in vivo, soybean (A3555)
- Design: key: 0 for poor tolerance, high damage, low green coloration; 1 for some tolerance, average damage, moderate green coloration; 2 for good tolerance, low damage, high green coloration
- Protocol Conditions: TP30; S-3100 spray five weeks post-transformation, scored day four
Measure: coloration score

INSERT INTO measurements (molecule, measure, obs_value) VALUES
  ('H_N90: microbial HemG protoporphyrinogen oxidase, SEQ ID NO:1 (SEQ ID NO:11 lacking start methionine; variants 18, 19) (protein, listed as Enterobacter cloacae) MKALVLYSTRDGQTHAIASYIASCMKEKAECDVIDLTHGEHVNLTQYDQVLIGASIRYGHFNAVLDKFIKRNVDQLNNMPSAFFCVNLTARKPEKRTPQTNPYVRKFLLATPWQPALCGVFAGALRYPRYRWIDKVMIQLIMRMTGGETDTSKEVEYTDWEQVKKFAEDFAKLSYKKAL', 'coloration score', 1),
  ('H_N20: microbial HemG protoporphyrinogen oxidase, SEQ ID NO:2 (SEQ ID NO:12 lacking start methionine) (protein, listed as Pantoea ananatis) MKALILFSTRDGQTQKIASAIADEIKGQQSCDVINIQDAKTLDWQQYDRVLIGASIRYGHFQPVVNEFVKHNLLALQQRVSGFFSVNLTARKPEKRSPETNAYTVKFLAQSPWQPDCCAVFAGALYYPRYRWFDRVMIQFIMRMTGGETDASKEVEYTDWQQVQRFARDFAQLPGKSY', 'coloration score', 1),
  ('H_N50: microbial HemG protoporphyrinogen oxidase, SEQ ID NO:7 (SEQ ID NO:16 lacking start methionine) (protein, listed as Shimwellia blattae) MKTLILFSTRDGQTHKIARHIAGVLEEQGKACELVDLLQPGEPDWSTVECVVLGASIRYGHFHKSFIRFVNTHAQRLNNMPGALFTVNLVARKPEKQSPQTNSYTRKFLAASPWQPQRCQVFAGALRYPRYSWYDRMMIRLIMKMAGGETDTRKEVEYTDWQSVTRFAREIAQLPGETR', 'coloration score', 1);
